Where do the numbers come from? From patent US20170022281A1.

Molecular target: T1, human PRLR (Biacore antigen) (human, UniProt P16471 25-234, limits assumed)
T1 construct: The construct injected over captured antibody is not described (a soluble form is likely); also called huPRLR
T1 sequence: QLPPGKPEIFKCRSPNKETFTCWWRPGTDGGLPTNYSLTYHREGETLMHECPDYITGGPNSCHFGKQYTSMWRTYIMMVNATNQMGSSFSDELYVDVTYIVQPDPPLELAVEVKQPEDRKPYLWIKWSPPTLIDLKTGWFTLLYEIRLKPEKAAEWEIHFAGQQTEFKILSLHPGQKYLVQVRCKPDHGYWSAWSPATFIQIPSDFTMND
Assay: SPR simultaneous binding; PRLR held by surface mAb Ab39
Protocol: Running buffer was HBS-EP+ (10 mM Hepes, pH7.4, 150 mM NaCl, 3 mM EDTA, 0.05% surfactant). Assay was performed at 12° C. using Biacore T200 and CM5 sensor chips with anti-human IgG (Pierce) amine-coupled in all 4 flow cells to ˜2000 RU. Separate test mAbs were captured in flowcells 2, 3 & 4 (flowcell 1 was reference, no test mAb). All 4 flowcells were then blocked by injection with isotype control mAb at 50 ug/ml. […]
MEASUREMENT_NAME: solution mAb binding, % of PRLR binding
Returns: string containing the number followed by the unit.

Query block: Can you share its solution mAb binding, % of PRLR binding? I mean this binder: Ab39 (antibody, human IgG1, kappa, V domains shown, humanized from Ab7; G1; also called Ab4 HC.1a and Ab4 LC.1a) VH: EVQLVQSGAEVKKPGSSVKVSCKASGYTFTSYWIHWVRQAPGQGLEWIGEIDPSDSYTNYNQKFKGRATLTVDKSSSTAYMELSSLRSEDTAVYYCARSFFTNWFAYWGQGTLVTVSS VL: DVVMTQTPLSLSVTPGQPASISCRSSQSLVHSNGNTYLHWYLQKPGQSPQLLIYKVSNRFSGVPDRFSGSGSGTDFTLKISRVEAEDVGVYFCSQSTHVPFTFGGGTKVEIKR
Result block: -2%

Query block: Looking for the measured solution mAb binding, % of PRLR binding of Ab49 (antibody, human IgG1, kappa, V domains shown, humanized from Ab8; G1; also called Ab3 HC.1a and Ab3 LC.1b) VH: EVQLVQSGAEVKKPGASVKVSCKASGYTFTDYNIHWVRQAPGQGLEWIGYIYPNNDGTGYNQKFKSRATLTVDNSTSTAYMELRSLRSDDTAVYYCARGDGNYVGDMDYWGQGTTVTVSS VL: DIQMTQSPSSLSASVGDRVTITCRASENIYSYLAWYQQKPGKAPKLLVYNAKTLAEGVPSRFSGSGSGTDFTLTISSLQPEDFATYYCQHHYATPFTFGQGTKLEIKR , can you help?
Result block: -2%

Query block: Param item = chAb5 (antibody, human IgG1, kappa, V domains shown, chimeric, murine variable and human G1/kappa constant regions) VH: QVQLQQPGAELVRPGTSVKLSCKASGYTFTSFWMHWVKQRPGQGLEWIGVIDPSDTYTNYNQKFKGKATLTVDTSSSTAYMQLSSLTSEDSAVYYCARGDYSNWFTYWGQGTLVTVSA VL: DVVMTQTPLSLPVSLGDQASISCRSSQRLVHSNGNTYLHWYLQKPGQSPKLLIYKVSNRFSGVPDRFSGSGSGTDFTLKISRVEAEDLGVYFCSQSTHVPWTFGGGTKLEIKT ; retrieve measured solution mAb binding, % of PRLR binding.
Result block: -2%
